# System: LN-18 (Glioblastoma);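 also: after 72 h of two-drug dosing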
# assay method text: Bliss excess, mean over the matrix (fraction); higher = more synergy

>  <molecule>
C=CCn1c(=O)c2cnc(Nc3ccc(N4CCN(C)CC4)cc3)nc2n1-c1cccc(C(C)(C)O)n1 [AZD1775] + O=C(c1cc(Cc2n[nH]c(=O)c3ccccc23)ccc1F)N1CCN(C(=O)C2CC2)CC1 [Olaparib] (first compound max 1 µM, partner max 10 µM)

>  <Bliss excess>
-0.037

$$$$
>  <molecule>
CC1(C)CCC(CN2CCN(c3ccc(C(=O)NS(=O)(=O)c4ccc(NCC5CCOCC5)c([N+](=O)[O-])c4)c(Oc4cnc5[nH]ccc5c4)c3)CC2)=C(c2ccc(Cl)cc2)C1 [Venetoclax] + C[C@@H]1COCCN1C2=NC(=NC(=C2)C3(CC3)[S@](=N)(=O)C)C4=C5C=CNC5=NC=C4 [AZD6738] (first compound max 1 µM, 7x7, partner max 10 µM)

>  <Bliss excess>
-0.0469

$$$$
>  <molecule>
COc1nnc2ccc(N3CCC(c4ccc(OCCN5CCN(C)C(=O)[C@H]5C)cc4)CC3)nn12 [AZD5153] + CN(CC[C@H](CSC1=CC=CC=C1)NC2=C(C=C(C=C2)S(=O)(=O)NC(=O)C3=CC=C(C=C3)N4CCC(CC4)[C@H](C5=CC=CC=C5C6=CC=C(C=C6)Cl)O)S(=O)(=O)C(F)(F)F)CCO [AZD4320] (first compound max 1 µM, 7x7, partner max 1 µM)

>  <Bliss excess>
-0.0251

$$$$
>  <molecule>
CC(=O)c1c(C)c2cnc(Nc3ccc(N4CCNCC4)cn3)nc2n(C2CCCC2)c1=O [Palbociclib] + Cc1c2c(nn1C)CSCc1cc(n(C)n1)CSc1cc(c3ccccc3c1)OCCCc1c(C(=O)O)n(C)c3c-2c(Cl)ccc13 [AZD5991] (first compound max 10 µM, 7x7, partner max 1 µM)

>  <Bliss excess>
-0.0153

$$$$

These measurements were taken from the supplement of paper PMC11061612.
